As shown below, each of these compounds has a reported Cmax value.
assay_explanation: Cmax in CD1 mouse at 30 mg/kg, po
Assay type: ADME, organism-based
Parameters: dose 30 mg/kg, route oral
measurement_setup: in vivo
Provide only the numeric value, understood in µM.

// query Cmax value for entry CC(=O)N[C@@H]1[C@@H](N)[C@@H](F)[C@](F)(C(=O)O)O[C@H]1[C@H](O)[C@H](O)CO 2.8

Entry CCOC(=O)C1=C[C@@H](OC(CC)CC)[C@H](NC(C)=O)[C@@H](N)C1 please 13.5

----------
assay_explanation: Stability in simulated gastric fluid at 10 uM at pH 4 measured at 15 mins
Format: ADME
measurement_setup: read-out: Stability
Each entry below lists one item and its recorded remaining at 0.25 h, 10 µM value.
Report only the number, with the unit % understood.

Reference set (3 entries):
structure_string	units	value_reported
CCCCCCCCOC(=O)OC[C@@H](O)[C@@H](O)[C@@H]1O[C@@](F)(C(=O)OC)[C@H](F)[C@H](N)[C@H]1NC(C)=O	%	94
CC(=O)N[C@@H]1[C@@H](N)[C@@H](F)[C@](F)(C(=O)OCC2CCCCC2)O[C@H]1[C@H](O)[C@H](O)CO	%	100
CCCCCOC(=O)[C@]1(F)O[C@@H]([C@H](O)[C@H](O)CO)[C@H](NC(C)=O)[C@@H](N)[C@H]1F	%	100

// query remaining at 0.25 h, 10 µM value for entry COC(=O)[C@]1(F)O[C@@H]([C@H](O)[C@H](O)CO)[C@H](NC(C)=O)[C@@H](N)[C@H]1F 100

Try CC(=O)N[C@@H]1[C@@H](N)[C@@H](F)[C@](F)(C(=O)OCC(=O)N(C)C)O[C@H]1[C@H](O)[C@H](O)CO next. 88

Moving on to the next compound: COC(=O)[C@]1(F)O[C@@H]([C@H](O)[C@H](O)COC(=O)OCC(C)C)[C@H](NC(C)=O)[C@@H](N)[C@H]1F 98

What would you report for CC(=O)N[C@@H]1[C@@H](N)[C@@H](F)[C@](F)(C(=O)OC(C)C)O[C@H]1[C@H](O)[C@H](O)CO ? 99

----------
assay_explanation: Oral bioavailability in CD1 mouse at 30 mg/kg
Assay type: ADME, organism-based
measurement_setup: in vivo
measure: bioavailability
Numeric answer plus unit only.

structure_string	bioavailability
CCOC(=O)C1=C[C@@H](OC(CC)CC)[C@H](NC(C)=O)[C@@H](N)C1	64.5%

Next molecule, please.
Returns the measured bioavailability for the input molecule. Input: CC(=O)N[C@@H]1[C@@H](N)[C@@H](F)[C@](F)(C(=O)O)O[C@H]1[C@H](O)[C@H](O)CO 3.1%

----------
Tested on: Mus musculus
assay_explanation: Total plasma concentration in CD1 mouse assessed as (2R,3R,4R,5R,6R)-5-acetamido-4-amino-2,3-difluoro-6-((1R,2R)-1,2,3-trihydroxypropyl)tetrahydro-2H-pyran-2-carboxylic acid at 30 mg/kg, po measured at 20 mins by reversed-phase UPLC/MS analysis
Format: ADME, organism-based
Parameters: dose 30 mg/kg, route oral
measurement_setup: in vivo
measure: concentration (µM)
Report only the number, with the unit µM understood.

See these solved cases before continuing.
structure_string	value_reported
CC(=O)N[C@@H]1[C@@H](N)[C@@H](F)[C@](F)(C(=O)NC2CCCCC2)O[C@H]1[C@H](O)[C@H](O)CO	1.14
CC(=O)N[C@@H]1[C@@H](N)[C@@H](F)[C@](F)(C(=O)OCCCCCOC(=O)c2ccc3ccccc3c2O)O[C@H]1[C@H](O)[C@H](O)CO	0.29
CCCCCCCCOC(=O)OC[C@@H](O)[C@@H](O)[C@@H]1O[C@@](F)(C(=O)OC)[C@H](F)[C@H](N)[C@H]1NC(C)=O	2.97
CC(=O)N[C@@H]1[C@@H](N)[C@@H](F)[C@](F)(C(=O)OCCCCC(F)(F)F)O[C@H]1[C@H](O)[C@H](O)CO	2.54
COC(=O)[C@]1(F)O[C@@H]([C@H](O)[C@H]2COC(C)(C)O2)[C@H](NC(C)=O)[C@@H](N)[C@H]1F	2.57
CC(=O)N[C@@H]1[C@@H](N)[C@@H](F)[C@](F)(C(=O)OCCCCCOC(=O)C(C)(C)C)O[C@H]1[C@H](O)[C@H](O)CO	1.87

Field: next compound
Any idea what its concentration is? The compound is COC(=O)[C@]1(F)O[C@@H]([C@H](O)[C@H]2COC(=O)O2)[C@H](NC(C)=O)[C@@H](N)[C@H]1F 0.35

----------
assay_explanation: Half life in CD1 mouse at 30 mg/kg, po
Format: ADME, organism-based
Set-up: dose 30 mg/kg, route oral
measurement_setup: in vivo
measure: half-life

structure_string	half-life
CC(=O)N[C@@H]1[C@@H](N)[C@@H](F)[C@](F)(C(=O)O)O[C@H]1[C@H](O)[C@H](O)CO	3.27 h

Okay, now this compound:
Name the reported half-life value associated with the compound CCOC(=O)C1=C[C@@H](OC(CC)CC)[C@H](NC(C)=O)[C@@H](N)C1 1.23 h

----------
Tested on: Mus musculus
assay_explanation: Total plasma concentration in CD1 mouse assessed as (2R,3R,4R,5R,6R)-5-acetamido-4-amino-2,3-difluoro-6-((1R,2R)-1,2,3-trihydroxypropyl)tetrahydro-2H-pyran-2-carboxylic acid at 30 mg/kg, po measured at 60 mins by reversed-phase UPLC/MS analysis
Format: ADME, organism-based
Parameters: dose 30 mg/kg, route oral
measurement_setup: in vivo, 1 h
In plain terms, low concentration, meaning strictly below 3 µM, gives true (1), and everything else gives false (0).

Worked cases, answers included:
structure_string	assigned_label
CC(=O)N[C@@H]1[C@@H](N)[C@@H](F)[C@](F)(C(=O)OCC2CCCCC2)O[C@H]1[C@H](O)[C@H](O)CO	false (0)
CCOC(=O)[C@]1(F)O[C@@H]([C@H](O)[C@H](O)CO)[C@H](NC(C)=O)[C@@H](N)[C@H]1F	false (0)

Check if concentration falls below 3 µM for COC(=O)[C@]1(F)O[C@@H]([C@H](O)[C@H]2COC3(CCCC3)O2)[C@H](NC(C)=O)[C@@H](N)[C@H]1F . true (1)

Try the compound COC(=O)[C@]1(F)O[C@@H]([C@H](O)[C@H](O)COP(=O)(OC)OC)[C@H](NC(C)=O)[C@@H](N)[C@H]1F true (1)

Repeat with COC(=O)[C@]1(F)O[C@@H]([C@H](O)[C@H](O)COC(=O)OCC(C)C)[C@H](NC(C)=O)[C@@H](N)[C@H]1F false (0)

Please answer likewise for CC(=O)N[C@@H]1[C@@H](N)[C@@H](F)[C@](F)(C(=O)OCCCOC(=O)C(C)(C)C)O[C@H]1[C@H](O)[C@H](O)CO false (0)

----------
assay_explanation: Stability in simulated gastric fluid at 10 uM at pH 1 measured at 60 mins
Assay type: ADME
measurement_setup: read-out: Stability
measure: remaining at 1 h, 10 µM (%)
Dear colleague, please return just the value in %, with no unit written.

Worked examples, 4 compounds total:
structure_string	remaining at 1 h, 10 µM (%)
CC(=O)N[C@@H]1[C@@H](N)[C@@H](F)[C@](F)(C(=O)OC(C)C)O[C@H]1[C@H](O)[C@H](O)CO	98
CC(=O)N[C@@H]1[C@@H](N)[C@@H](F)[C@](F)(C(=O)OCC(=O)N(C)C)O[C@H]1[C@H](O)[C@H](O)CO	25
CC(=O)N[C@@H]1[C@@H](N)[C@@H](F)[C@](F)(C(=O)OCC2CCCCC2)O[C@H]1[C@H](O)[C@H](O)CO	100
COC(=O)[C@]1(F)O[C@@H]([C@H](O)[C@H](O)COC(=O)OCC(C)C)[C@H](NC(C)=O)[C@@H](N)[C@H]1F	74

# remaining at 1 h, 10 µM lookup, item COC(=O)[C@]1(F)O[C@@H]([C@H](O)[C@H](O)CO)[C@H](NC(C)=O)[C@@H](N)[C@H]1F 75

Same lookup for CCCCCCCCOC(=O)OC[C@@H](O)[C@@H](O)[C@@H]1O[C@@](F)(C(=O)OC)[C@H](F)[C@H](N)[C@H]1NC(C)=O , please. 90

Then CCCCCOC(=O)[C@]1(F)O[C@@H]([C@H](O)[C@H](O)CO)[C@H](NC(C)=O)[C@@H](N)[C@H]1F ? 96

----------
Test system: Mus musculus
assay_explanation: Total plasma concentration in CD1 mouse assessed as (2R,3R,4R,5R,6R)-5-acetamido-4-amino-2,3-difluoro-6-((1R,2R)-1,2,3-trihydroxypropyl)tetrahydro-2H-pyran-2-carboxylic acid at 30 mg/kg, po measured at 60 mins by reversed-phase UPLC/MS analysis
Assay type: ADME, organism-based
Set-up: dose 30 mg/kg, route oral
measurement_setup: in vivo, 1 h
Reported concentration values are given for each entry in this list.
Please give a number only; it is taken to be in µM.

// known answers, use as guide
structure_string	system_name	measure	value_reported
CC(=O)N[C@@H]1[C@@H](N)[C@@H](F)[C@](F)(C(=O)OCCC(=O)N(C)C)O[C@H]1[C@H](O)[C@H](O)CO	Mus musculus	concentration	3.75
CC(=O)N[C@@H]1[C@@H](N)[C@@H](F)[C@](F)(C(N)=O)O[C@H]1[C@H](O)[C@H](O)CO	Mus musculus	concentration	3.33

Okay, now this molecule:
Record request: concentration value, item CC(=O)N[C@@H]1[C@@H](N)[C@@H](F)[C@](F)(C(=O)NC2CCCCC2)O[C@H]1[C@H](O)[C@H](O)CO 2.15
